Measured viability by item
# Protocol: viability of PTEN-null HCT116 cells – cell-based, HCT116 clonal line, CellTiter-Glo, pilot screen (AID 824);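 also: 0% = 20 µM Hyamine control and 100% = vehicle cell control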
# Test conditions: HCT116 PTEN-deleted viability, 60 h, at 10 µM, active compounds read low
Inconclusive results are not listed.

| Compound | viability (%) |
| --- | --- |
| O=C(OCN1C(=O)c2ccccc2C1=O)C1CCCCC1 | 91 |
| CN1CCN(CCCNC(=O)c2ccc(CS(=O)(=O)c3ccc(Br)cc3)o2)CC1 | 90.8 |
| Cc1nc2ccccc2c2oc(C(=O)NCC3COc4ccccc4O3)cc12 (centres undefined) | 70.8 |
| CCOc1ccc(-c2nnc(-c3ccco3)o2)cc1 | 101 |
| O=C(O)c1ccc(-c2ccc(O)c(F)c2)cc1 | 97.4 |
| COC(=O)C(C)Sc1nc2c(c(=O)n1-c1ccccc1)SCC2 (centres undefined) | 90.8 |
| COc1cc2c(cc1OC)C(C)N(C(=O)Cn1ncc3c1-c1ccccc1OC3)CC2 (centres undefined) | 89.8 |
| CCOc1ccc(OCCCCN(C)C)cc1 | 93.5 |
| Cn1nnc2cc(C(=O)N3CCCCCC3)ccc21 | 96 |
| COc1ccc(C2N(c3cc(Cl)ccc3OC)C(=O)C3CCCN32)cc1 (centres undefined) | 96.9 |
| O=C(CCCN1C(=O)CSc2ncccc21)N1CCN(Cc2ccccc2)CC1 | 91.7 |
| CSCCC(NC(=O)c1c(C)oc2c1CCCC2)C(=O)O (centres undefined) | 95.9 |
| COCCN1C(=O)c2oc3ccccc3c(=O)c2C1c1ccc(OC)c(OC)c1 (centres undefined) | 95.1 |
| CCCCn1c2c(c3ccccc31)CCc1nonc1-2 | 78.4 |
| O=C1C/C(=C/NCc2ccccc2)C(=O)N1 | 102 |
| CCc1ccc(C2CC(c3cccc(Cl)c3)n3nc(N)nc3N2)cc1 (centres undefined) | 65.6 |
| CC1Cc2nc(SCC(N)=O)n(Cc3ccccc3)c(=O)c2S1 (centres undefined) | 90.9 |
| O=C(Nc1ccc2snnc2c1)N1CCN(c2ccccc2)CC1 | 79.4 |
| O=C(CN1CCN(c2ncccn2)CC1)N1CCN(C(c2ccccc2)c2ccccc2)CC1 | 85 |

----------
# Protocol: S. cerevisiae growth inhibition in restrictive medium, OD615, pilot screen, restrictive growth control, yeast lifespan reduction project (AID 706);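 also: modified DeaD lifespan yeast strain shifted to restrictive glucose medium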
# Test conditions: OD615, 48 h, at 10 µM, active compounds read high
Measured growth inhibition by item
Measured metric: growth inhibition (%)

| Compound | Measured metric | Experimental value |
| --- | --- | --- |
| CCN1CCN(Cc2ccc(NC(=O)Nc3ccccc3)cc2)CC1 | growth inhibition | -11.3 |
| COc1ccc(OCCOC(=O)Nc2ccccc2)cc1 | growth inhibition | -6.21 |
| CCN1CCN(C(=O)C2CCN(Cc3nc(-c4ccc(Cl)cc4)oc3C)CC2)CC1 | growth inhibition | -25 |
| CCOc1ccc(NC2c3ccccc3C(=O)N2Cc2ccco2)cc1 (centres undefined) | growth inhibition | 6.9 |
| O=C(CC1Oc2ccccc2NC1=O)NCCc1ccccc1 (centres undefined) | growth inhibition | 0.925 |
| COC(=O)C1(C)Nc2ccccc2C(=O)N1c1ccccc1C (centres undefined) | growth inhibition | -8.55 |
| Oc1c(C(c2cccs2)N2CCN(c3ccc(F)cc3)CC2)sc2ncnn12 (centres undefined) | growth inhibition | -6.24 |
| CCOC(=O)N1CCN(Cc2nc3c(c(=O)n(C)c(=O)n3C)n2Cc2ccccc2)CC1 | growth inhibition | -4.35 |
| COc1ccc(S(=O)(=O)Nc2ccc3c(c2)OCO3)cc1C(=O)O | growth inhibition | -5.47 |
| c1cn2c(NC3CCCC3)c(-c3ccc(N4CCOCC4)cc3)nc2cn1 | growth inhibition | 7.59 |
| COC(=O)c1c(C)nn(-c2ccccc2)c1N | growth inhibition | -19.5 |
| CCOc1ccc(-c2nnc3sc(-c4c(OC)cccc4OC)nn23)cc1 | growth inhibition | 8.15 |
| CCOC(=O)CNc1nc(C(C)(C)C)nc2c1nnn2Cc1ccccc1Cl | growth inhibition | -3.68 |
| COc1ccccc1NC(=O)C1=C(C)Nc2nnnn2C1c1cccc(C)c1 (centres undefined) | growth inhibition | -18.7 |
| CCOC(=O)C1CCCN(C(=O)Cc2c(C(=O)O)[nH]c3ccccc23)C1 (centres undefined) | growth inhibition | -0.39 |
| O=c1cc(-c2ccco2)oc2ccc(Cl)cc12 | growth inhibition | -2.54 |
| COc1ccc(OC)c(C2CC(=O)NC(SC)=C2C#N)c1 (centres undefined) | growth inhibition | -5.61 |
| CCc1ccccc1S(=O)(=O)Cc1ccc(C(=O)N2CCN(c3ccccn3)CC2)o1 | growth inhibition | -27 |
| COc1ccccc1CNC(=O)C1CCC(CNc2c(N3CCOCC3)c(=O)c2=O)CC1 (centres undefined) | growth inhibition | 8.34 |
